Property: log10 of DBIL; scope: individual molecules
- Species: Rattus norvegicus
- Protocol Text: Open TG-GATES - Regimen: Single
- Assay type: toxicity, organism-based, Sprague-Dawley
- Parameters: regimen Single, gender Male, age 6 weeks
- Stated Conditions: in vivo, po, 1000 mg/kg, 6 h, tissue Plasma, route gavage, dose level High
Scale type: logarithmic (base 10). Underlying DBIL unit: mg/dL.

INSERT INTO measurements (molecule, value_measured) VALUES
  ('O=C(O)c1cn(C2CC2)c2cc(N3CCNCC3)c(F)cc2c1=O', -1.28),
  ('Clc1ccccc1CN1CCc2sccc2C1', -1.09),
  ('O=C(O)c1cc(/N=N/c2ccc(S(=O)(=O)Nc3ccccn3)cc2)ccc1O', -1.18),
  ('C[C@H](CS)C(=O)N1CCC[C@H]1C(=O)O', -1.70);

query: What value of measured log10 of DBIL is listed for CCc1cc(C(N)=S)ccn1 [ETHIONAMIDE] ?
result: -2.40
